For each record, write down the corresponding protease stability score.
assayMethodText: protease stability score; higher = more stable; yeast display proteolysis, trypsin and chymotrypsin;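 note: log10 excess protease needed over predicted unfolded state with 0 meaning unfolded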
Enter the number alone.

Give the value of protease stability score reported for the following: DENVVKEVEKLLEWIQSGNEQHIQEMMDKHARAQVGDQKVKGRKQVSTQWRRLAEDIDIHARVKDMKNDGNRAILEIHQVRHHNGDPDEFHANQIVTMHGDRIKHLELQNTK
-0.283

Item DEEALEILRDAWEALRTGDHEKLRELFDKNANVRIGEKRFEGSDEIMRDWLTTIRNIRFHIHDIKFTVNGDKAVVRVNVNFEHNGKPQSDVYRMSAEADNGRIKSADADRDK : provide protease stability score
0.391

# return recorded protease stability score for entry DEDALRNWEQFIRNYKHGDETELQKLVDPNVHVRIGDREIHGREKLREHWRRQKEHARVDINVRSLEDQGSKVQVTFKMQYQVNGQPKHNSMRMEFTVRNGRIVEASYQFDPDEHRKLQS
1.23
